Tested on: RXF 393
testName: NCI tumour cell line growth inhibition, 48 h
Activity calls are given as the source filed them. Cut-off read from the data, not from the text of the source: active = GI50 up to about 1.1 µM and inactive = higher.
Below, each of the molecules is paired with its reported GI50 value.

Enquiry: Checklist item: GI50 tested on RXF 393, entry CCN(CC)CCCNc1nncc2c(C)c3[nH]c4ccc(OC)cc4c3cc12 , value?
Return: 1.32 µM (inactive)

====

System: UO-31
testName: NCI tumour cell line growth inhibition, 48 h
The source made the active and inactive calls. No stated cut-off is given here; in the data, active = GI50 up to about 1.1 µM and inactive = higher.
Below, each of the molecules is paired with its reported GI50 value.

Enquiry: Can you share its GI50? I mean this molecule: O=C(O)CCC(NC(=O)c1ccc(Nc2nc3ccc(C(F)(F)F)cc3nc2-c2ccccc2)cc1)C(=O)O (stereo not given)
Return: > 100 µM (inactive)

Enquiry: Input Cc1ccc(C)c2c1C/C(=C\c1ccccc1C(=O)O)C2=O
Return: > 100 µM (inactive)

Enquiry: Input COc1ccc([N+](=O)[O-])c2c(NCCCN(C)C)c3ccccc3nc12
Return: 0.255 µM (active)

// next entry
Enquiry: Can you share its GI50? I mean this molecule: Nc1ccccc1-c1noc(=O)[nH]1
Return: > 100 µM (inactive)

====

System: NCI-H226
testName: NCI tumour cell line growth inhibition, 48 h
Active and inactive are the calls of the source. Rule as the data show it: active = GI50 up to about 1.1 µM and inactive = higher.
# output must be one of class 1 for active, class 0 for inactive

Illustrative cases are given below, each with its answer.
Enquiry: Please state the recorded outcome for this compound: CC1(C)CC[C@]2(C(=O)O)[C@H](O)C[C@]3(C)C(=CC[C@@H]4[C@@]5(C)CC[C@H](OC6OC(C(=O)O)C(O)C(O)C6O)C(C)(C)[C@@H]5CC[C@]43C)[C@@H]2C1 (stereo partly specified)
Return: class 0

Enquiry: Input Cc1cc(S(=O)(=O)Nc2nnc3cnc4ccccc4n23)c(S)cc1Cl
Return: class 0

Others:
Enquiry: Please state the recorded outcome for this compound: COC(=O)CCCc1nc2ccccc2nc1/N=N/c1ccccc1
Return: class 0

Enquiry: Input CCOC(=O)N[C@H]1CCc2cc(O)c(OC)c(OC)c2-c2ccc(SC)c(=O)cc21
Return: class 1

Enquiry: Input O=C(c1ccccc1)c1ccc2c(c1)N=C(c1ccc(Cl)c(Cl)c1)CC(c1ccc3ccccc3c1)N2 (stereo unspecified)
Return: class 0

Enquiry: Input O=C(/C=C/c1ccccc1)/C=N/N1C(=S)N(c2ccccc2)C(=N\c2ccccc2)/C1=N/c1ccccc1
Return: class 0

Enquiry: Input C/C(=N\Nc1ccc([N+](=O)[O-])cc1[N+](=O)[O-])c1sc(-n2nc(-c3ccccc3)cc2-c2ccccc2)nc1C
Return: class 0

Enquiry: Input CC(C)c1cc(C(C)C)c(S(=O)(=O)N/N=C2\CC3CCC2(C)C3(C)C)c(C(C)C)c1 (stereo unspecified)
Return: class 0

====

Tested on: DMS-273
testName: NCI tumour cell line growth inhibition, 48 h
Activity calls are given as the source filed them. No stated cut-off is given here; in the data, active = GI50 up to about 1.1 µM and inactive = higher.
# output must be one of 1 (active), 0 (inactive)

Enquiry: Please state the recorded outcome for this compound: CC1=C(C(=O)Nc2c(C)cccc2C)C(c2ccccc2Cl)C(C(=O)Nc2c(C)cccc2C)=C(C)N1
Return: 0

Enquiry: Input CCOC(=O)N[C@H]1CCc2cc(O)c(OC)c(OC)c2-c2ccc(SC)c(=O)cc21
Return: 1

Enquiry: Input Cc1ccccc1NC(=O)C1C(=O)N(c2ccccc2C)C(=O)/C1=N\NC(N)=O (stereo not given)
Return: 0

Enquiry: Input O=C1/C(=C\c2ccccc2)CN(C(=O)CCN2CCCCC2)C/C1=C/c1ccccc1
Return: 0

Next item in the queue.
Enquiry: Please state the recorded outcome for this compound: CCOC(=O)C1C(c2ccccc2)=C(c2ccccc2)C(c2ccccc2)=C1c1ccccc1
Return: 0
